# Tested system: TLR8 (Homo sapiens, UniProt Q9NR97)
# Sequence (Q9NR97 27-1041): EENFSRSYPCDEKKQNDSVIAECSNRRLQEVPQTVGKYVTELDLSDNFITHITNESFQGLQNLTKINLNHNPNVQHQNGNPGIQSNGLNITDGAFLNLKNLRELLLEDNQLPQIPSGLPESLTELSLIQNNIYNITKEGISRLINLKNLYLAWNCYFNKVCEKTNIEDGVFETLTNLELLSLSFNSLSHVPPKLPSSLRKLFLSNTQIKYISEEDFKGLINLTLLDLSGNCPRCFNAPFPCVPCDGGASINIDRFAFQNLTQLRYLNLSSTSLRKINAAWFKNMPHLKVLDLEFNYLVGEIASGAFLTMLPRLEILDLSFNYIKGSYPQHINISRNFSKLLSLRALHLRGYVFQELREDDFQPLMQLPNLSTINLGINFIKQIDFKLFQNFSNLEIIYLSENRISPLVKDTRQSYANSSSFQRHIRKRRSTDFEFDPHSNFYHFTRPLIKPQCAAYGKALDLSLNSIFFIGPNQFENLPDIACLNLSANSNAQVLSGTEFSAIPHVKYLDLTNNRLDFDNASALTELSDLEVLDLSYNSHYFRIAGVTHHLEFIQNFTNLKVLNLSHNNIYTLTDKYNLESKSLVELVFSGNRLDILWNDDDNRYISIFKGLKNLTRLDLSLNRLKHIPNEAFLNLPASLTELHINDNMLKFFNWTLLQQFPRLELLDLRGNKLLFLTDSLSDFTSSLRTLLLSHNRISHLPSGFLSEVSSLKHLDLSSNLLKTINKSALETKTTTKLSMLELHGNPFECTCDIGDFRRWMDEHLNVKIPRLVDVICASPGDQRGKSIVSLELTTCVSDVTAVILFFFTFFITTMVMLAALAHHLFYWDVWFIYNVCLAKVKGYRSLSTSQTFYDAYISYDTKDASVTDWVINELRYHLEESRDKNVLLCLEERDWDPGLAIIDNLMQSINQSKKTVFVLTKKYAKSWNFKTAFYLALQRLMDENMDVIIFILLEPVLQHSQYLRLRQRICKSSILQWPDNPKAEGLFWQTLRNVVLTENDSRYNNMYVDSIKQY
# Method summary: HEK TLR8 Cell Assay
# Condition info: TLR8/NFKb HEK cells, R848 agonist 30 uM final, Steady-Glo readout
Where a name gives a salt, the structure may show the parent alone.
Parameter: IC50. Scope: all listed entries.

Cc1ccc(N2C[C@@H](C)[C@@H](N)C2)c2cccnc12; > 10000 nM
C[C@@H]1CN(c2ccc(C#N)c3nccnc23)C[C@@H]1NC(=O)C(O)C1CC1 (single isomer, unassigned) [Compound 13]; > 10000 nM
C[C@@H]1CN(c2ccc(C#N)c3nccnc23)C[C@@H]1NC(=O)CC1(F)CCN(C)CC1; < 1000 nM

Q: // returns reported IC50 for input Cc1ccc(N2C[C@@H](C)[C@@H](NC(=O)CC3CCN(C)C3)C2)c2cccnc12 (single isomer, unassigned) [Compound 38]
Ans: 1000 to 10000 nM

Q: // returns reported IC50 for input "Cc1ccc(N2C[C@@H](C)[C@@H](NC(=O)CC3(F)CCN(C)CC3)C2)c2cccnc12"
Ans: < 1000 nM

Q: // returns reported IC50 for input C[C@@H]1CN(c2ccc(C#N)c3nccnc23)C[C@@H]1NC(=O)CC1CCN(C)C1 (single isomer, unassigned) [Compound 6]
Ans: < 1000 nM

Q: // returns reported IC50 for input Cc1ccc(N2C[C@@H](C)[C@@H](NC(=O)C(O)C3CC3)C2)c2cccnc12 (single isomer, unassigned) [Compound 45]
Ans: > 10000 nM

Q: // returns reported IC50 for input CC1CN(c2ccc(C#N)c3nccnc23)CC1N (stereo not drawn) [Compound 56, hydrochloride]
Ans: < 1000 nM

Q: // returns reported IC50 for input "C[C@@H]1CN(c2ccc(C(F)(F)F)c3ncccc23)C[C@@H]1NC(=O)CC1(F)CCN(C)CC1"
Ans: < 1000 nM

Q: // returns reported IC50 for input "Cc1ncc(N2C[C@@H](C)[C@@H](NC(=O)CC3CN(C)C3)C2)c2cccnc12"
Ans: > 10000 nM

Q: // returns reported IC50 for input C[C@@H]1CN(c2ccc(C(F)(F)F)c3ncccc23)C[C@@H]1NC(=O)C(O)C1CC1 (single isomer, unassigned) [Compound 30]
Ans: 1000 to 10000 nM

Q: // returns reported IC50 for input "CC(C)[C@H](O)C(=O)N[C@H]1CN(c2ccc(C#N)c3nccnc23)C[C@H]1C"
Ans: 1000 to 10000 nM

Q: // returns reported IC50 for input "Cc1ccc(N2C[C@@H](C)[C@@H](NC(=O)[C@@H](O)C(C)C)C2)c2cccnc12"
Ans: > 10000 nM

Q: // returns reported IC50 for input Cc1ccc(N2C[C@@H](C)[C@@H](NC(=O)CC3CCCN(C)C3)C2)c2cccnc12 (single isomer, unassigned) [Compound 36]
Ans: 1000 to 10000 nM

Q: // returns reported IC50 for input C[C@@H]1CN(c2ccc(C(F)(F)F)c3ncccc23)C[C@@H]1NC(=O)CC1CCCN(C)C1 (single isomer, unassigned) [Compound 19]
Ans: < 1000 nM

* * *

# Tested system: TLR7 (Homo sapiens, UniProt Q9NYK1)
# Method summary: HEK TLR7 Cell Assay
# Condition info: TLR7/NFKb HEK cells, R848 agonist 10 uM final, Steady-Glo readout
# Method: Example 24: HEK TLR7 Cell Assay Into 384 CulturePlates (Corning 3707) was placed 5000 c/w of TLR7/NFKb HEK cells in 30 uL DMEM without Phenol red (gibco #31053) and 10% FCS-HI, 2 mM L-Glutamine, 1% Pen/Strept. The cells are incubated for 24 h at 37 degrees Celsius, and 10% carbon dioxide. […] Let the assay plate sit for 30 min at room temperature and then read plate on EnVision.
Parameter: IC50. Scope: all listed entries.

C[C@@H]1CN(c2ccc(C(F)(F)F)c3ncccc23)C[C@@H]1N [Compound 17]; 1000 to 10000 nM
Cc1ccc(N2C[C@@H](C)[C@@H](NC(=O)[C@@H](O)C(C)C)C2)c2cccnc12 [Compound 47]; 1000 to 10000 nM
Cc1ccc(N2C[C@@H](C)[C@@H](NC(=O)C(O)C3CC3)C2)c2cccnc12 (single isomer, unassigned) [Compound 46]; 1000 to 10000 nM
Cc1ccc(N2C[C@@H](C)[C@@H](N)C2)c2cccnc12 [Compound 33]; > 10000 nM
C[C@@H]1CN(c2ccc(C#N)c3nccnc23)C[C@@H]1NC(=O)CC1CCN(C)CC1 [Compound 2]; < 1000 nM

Q: // returns reported IC50 for input C[C@@H]1CN(c2ccc(C(F)(F)F)c3ncccc23)C[C@@H]1NC(=O)CN1CCOCC1 [Compound 23]
Ans: 1000 to 10000 nM

Q: // returns reported IC50 for input C[C@@H]1CN(c2ccc(C#N)c3nccnc23)C[C@@H]1N [Compound 1]
Ans: < 1000 nM

Q: // returns reported IC50 for input Cc1cc2c(N3CCC(CNCCN4CCCCC4)C3)ccnc2n1C (centres unmarked) [Compound 55]
Ans: 1000 to 10000 nM

* * *

Parameter: IC50. Scope: all listed entries.
# Tested system: TLR7 (Homo sapiens)
# Sequence (Q9NYK1 27-1049): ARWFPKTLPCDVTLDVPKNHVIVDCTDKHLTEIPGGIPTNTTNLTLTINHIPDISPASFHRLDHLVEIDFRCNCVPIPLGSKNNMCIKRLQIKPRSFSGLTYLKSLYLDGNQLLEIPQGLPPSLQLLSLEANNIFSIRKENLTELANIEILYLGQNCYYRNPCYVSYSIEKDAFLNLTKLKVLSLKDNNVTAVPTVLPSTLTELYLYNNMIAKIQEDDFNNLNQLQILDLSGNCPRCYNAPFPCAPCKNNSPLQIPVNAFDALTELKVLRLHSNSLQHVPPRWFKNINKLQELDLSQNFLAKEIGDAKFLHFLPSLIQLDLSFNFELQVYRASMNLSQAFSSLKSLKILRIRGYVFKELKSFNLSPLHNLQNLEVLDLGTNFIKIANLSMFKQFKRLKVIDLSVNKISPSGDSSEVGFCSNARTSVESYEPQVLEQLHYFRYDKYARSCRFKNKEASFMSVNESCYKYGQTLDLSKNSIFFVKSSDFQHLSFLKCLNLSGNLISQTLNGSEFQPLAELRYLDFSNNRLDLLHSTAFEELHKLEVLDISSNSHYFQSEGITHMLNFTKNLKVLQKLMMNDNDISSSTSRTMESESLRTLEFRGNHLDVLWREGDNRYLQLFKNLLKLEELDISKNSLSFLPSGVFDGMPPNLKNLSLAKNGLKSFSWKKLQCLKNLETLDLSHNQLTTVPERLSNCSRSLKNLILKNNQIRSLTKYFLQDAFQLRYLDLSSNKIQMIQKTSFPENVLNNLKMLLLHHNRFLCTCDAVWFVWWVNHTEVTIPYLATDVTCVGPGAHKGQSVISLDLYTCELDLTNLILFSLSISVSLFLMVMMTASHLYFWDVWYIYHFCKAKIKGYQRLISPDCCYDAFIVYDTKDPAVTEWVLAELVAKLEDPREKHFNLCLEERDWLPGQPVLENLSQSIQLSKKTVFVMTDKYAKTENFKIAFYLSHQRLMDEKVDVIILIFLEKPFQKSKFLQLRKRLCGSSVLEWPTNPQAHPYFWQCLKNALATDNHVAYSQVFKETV
# Method summary: HEK TLR7 Cell Assay
# Condition info: TLR7/NFKb HEK cells, R848 agonist 10 uM final, Steady-Glo readout

Q: // returns reported IC50 for input "CC(C)[C@H](O)C(=O)N[C@H]1CN(c2ccc(C#N)c3nccnc23)C[C@H]1C"
Ans: 1 to 10 µM

* * *

Parameter: pIC50. Scope: all listed entries.
# Tested system: UniProt:Q9NR97
# Method summary: HEK TLR8 Cell Assay
# Condition info: TLR8/NFKb HEK cells, R848 agonist 30 uM final, Steady-Glo readout
pIC50: −log10 of the molar value. Structures can show the parent of a compound that is named as a salt.

Cc1ccc(N2C[C@@H](C)[C@@H](NC(=O)CC3(C)CCN(C)CC3)C2)c2cccnc12 [Compound 40]; 5.00 to 6.00
Cc1ncc(N2C[C@@H](C)[C@@H](N)C2)c2cccnc12 [Compound 51, hydrochloride]; < 5.00
Cc1ccc(N2C[C@@H](C)[C@@H](NC(=O)CC3(F)CCNCC3)C2)c2cccnc12 [Compound 41]; 5.00 to 6.00
C[C@@H]1CN(c2ccc(C(F)(F)F)c3ncccc23)C[C@@H]1NC(=O)CC1CCN(C)C1 (single isomer, unassigned) [Compound 21]; > 6.00
C[C@@H]1CN(c2ccc(C#N)c3nccnc23)C[C@@H]1NC(=O)C(O)C1CC1 (single isomer, unassigned) [Compound 14]; 5.00 to 6.00

Q: // returns reported pIC50 for input C[C@@H]1CN(c2ccc(C(F)(F)F)c3ncccc23)C[C@@H]1NC(=O)CC1CCN(C)C1 (single isomer, unassigned) [Compound 22]
Ans: > 6.00

Q: // returns reported pIC50 for input Cc1ccc(N2C[C@@H](C)[C@@H](NC(=O)[C@H](O)C(C)C)C2)c2cccnc12 [Compound 48]
Ans: < 5.00

Q: // returns reported pIC50 for input C[C@@H]1CN(c2ccc(C(F)(F)F)c3ncccc23)C[C@@H]1NC(=O)CC1(C)CCN(C)CC1 [Compound 24]
Ans: > 6.00

Q: // returns reported pIC50 for input Cc1ccc(N2C[C@@H](C)[C@@H](NC(=O)CC3CCN(C)CC3)C2)c2cccnc12 [Compound 34]
Ans: > 6.00

Q: // returns reported pIC50 for input CCN(CC)CCNC(=O)C1CCN(c2ccnc3nccnc23)C1 (stereo not shown) [Compound 54]
Ans: < 5.00

Origin of measurements: patent US10793553B2
